assay: Gli-Sufu pathway antagonists, primary screen, luciferase luminescence, Sufu-KO-LIGHT cells, uHTS (AID 588413); conditions: Sufu-KO-LIGHT fibroblasts, Gli luciferase reporter luminescence; at 5 µM; hits give high values;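 also: 0% = DMSO-treated cells and 100% = wells with medium but no cells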
About 2,500 (0.74%) of roughly 340,000 compounds were called active. Shown is part of a subset that was picked to be rich in actives.
parameter measured: inhibition (%)
Field format: number, assumed %, no unit text.

For the compound shown here, NC(=O)C1(Nc2ccccc2Cl)CCCC1 , give the reported inhibition.
4.9

For the compound shown here, Cn1cnc2c1c(=O)n(Cc1ccccc1C#N)c(=O)n2C , give the reported inhibition.
6.5

For the compound shown here, CC(C)=NN1C(=O)c2ccccc2NC1(C)C , give the reported inhibition.
0.06

For the compound shown here, COc1ccccc1NC(=O)CCSc1nnc(-c2ccc(O)cc2)o1 , give the reported inhibition.
-0.57

For the compound shown here, O=C(O)C(c1cccs1)C1(O)CCCCC1 (configuration not stated) , give the reported inhibition.
6.95

For the compound shown here, O=C(Cn1cnc2c(nnn2-c2ccccc2)c1=O)N1CCC(Cc2ccccc2)CC1 , give the reported inhibition.
-4.74

For the compound shown here, O=C(N/C(=C\c1ccc([N+](=O)[O-])cc1)C(=O)N1CCOCC1)c1cccc(Br)c1 , give the reported inhibition.
14.4
